# TESTED ON: DNA (cytosine-5)-methyltransferase 1 (Homo sapiens) (UniProt P26358)
# Sequence (P26358 504-1616 limits assumed): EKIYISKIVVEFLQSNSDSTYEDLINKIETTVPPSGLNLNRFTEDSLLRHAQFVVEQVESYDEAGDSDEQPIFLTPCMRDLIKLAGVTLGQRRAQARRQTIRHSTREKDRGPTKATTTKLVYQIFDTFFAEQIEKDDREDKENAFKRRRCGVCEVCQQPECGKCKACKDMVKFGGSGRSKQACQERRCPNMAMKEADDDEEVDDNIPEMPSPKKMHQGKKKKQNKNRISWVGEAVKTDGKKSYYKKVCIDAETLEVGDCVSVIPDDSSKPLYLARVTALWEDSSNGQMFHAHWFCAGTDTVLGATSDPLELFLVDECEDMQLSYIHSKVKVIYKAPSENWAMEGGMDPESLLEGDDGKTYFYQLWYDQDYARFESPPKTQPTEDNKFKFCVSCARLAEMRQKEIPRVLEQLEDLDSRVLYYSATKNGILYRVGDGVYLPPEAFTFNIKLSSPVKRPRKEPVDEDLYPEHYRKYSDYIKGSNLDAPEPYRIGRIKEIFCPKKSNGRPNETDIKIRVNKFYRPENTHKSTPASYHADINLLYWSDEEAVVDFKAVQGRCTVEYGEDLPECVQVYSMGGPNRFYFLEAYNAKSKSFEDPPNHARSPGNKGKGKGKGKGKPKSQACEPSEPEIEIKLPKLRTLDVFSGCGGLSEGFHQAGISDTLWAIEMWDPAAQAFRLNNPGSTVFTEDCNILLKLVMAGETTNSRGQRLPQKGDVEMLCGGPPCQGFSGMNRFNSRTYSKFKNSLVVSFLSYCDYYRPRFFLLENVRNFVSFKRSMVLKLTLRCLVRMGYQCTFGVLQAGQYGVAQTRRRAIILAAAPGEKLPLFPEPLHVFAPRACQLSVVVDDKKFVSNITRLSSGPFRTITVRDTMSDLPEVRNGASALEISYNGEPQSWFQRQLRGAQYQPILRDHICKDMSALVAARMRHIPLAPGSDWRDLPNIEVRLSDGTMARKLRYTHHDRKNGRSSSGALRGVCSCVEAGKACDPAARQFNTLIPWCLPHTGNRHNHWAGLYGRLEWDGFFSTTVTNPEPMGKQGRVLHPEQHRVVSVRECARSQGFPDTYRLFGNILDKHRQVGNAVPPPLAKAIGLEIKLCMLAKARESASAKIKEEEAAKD
# EXPERIMENT DESCRIPTION: inhibition of human DNMT1, hit confirmation – biochemical, molecular beacon, fluorescence, single concentration (AID 602385)
# MEASUREMENT CONDITIONS: DNMT1 molecular beacon HinP1I cleavage, at 10 µM, stronger effect = higher value
The campaign covered roughly 2,300 compounds. About 180 (7.8%) were called active. The list is a sample of the results.
// inhibition lookup, one value per entry

[
  {
    "STRUCTURE": "CCOc1cc(NC(=O)c2ccco2)c(OCC)cc1NC(=O)COc1ccccc1",
    "inhibition": "0.94% (inactive)"
  }
]

Problem: Look at this compound and give its reported inhibition. COc1ccc(NC(=O)CCn2ccnc2)c(OC)c1
Solution: 3.76% (inactive)

Problem: Look at this compound and give its reported inhibition. COc1ccc(/C=C2\SC(=N)N(c3ccc(F)cc3)C2=O)cc1
Solution: -0.37% (inactive)

Problem: Look at this compound and give its reported inhibition. CC(C)(C)NC(=O)CSC(=Nc1ccccc1F)NC#N
Solution: 5.5% (inactive)
